src = patent US9487483B2

# assayedTarget: Recombinant human factor D (Homo sapiens (Human))
# Sequence (P00746 26-253): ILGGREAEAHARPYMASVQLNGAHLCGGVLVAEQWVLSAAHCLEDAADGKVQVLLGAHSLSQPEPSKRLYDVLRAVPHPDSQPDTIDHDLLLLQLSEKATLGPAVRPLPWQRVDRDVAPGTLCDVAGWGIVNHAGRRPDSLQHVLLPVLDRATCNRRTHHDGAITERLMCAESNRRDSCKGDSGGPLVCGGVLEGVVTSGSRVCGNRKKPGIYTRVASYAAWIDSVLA
# measurementProtocol: biochemical
# Assay type: biochemical
# measurementParameters: Factor D inhibition data using Method 1; substrate Z-Lys-thiobenzyl, fluorescence readout; read-out: IC50
outcomeMeasure: pIC50
When answering, recall that pIC50 equals minus log10 of the concentration in mol/L, and write that number alone.

input: Quick one: pIC50 for "C[C@@]1(CO)CCC[C@H](NC(=O)[C@@H]2C[C@H]3C[C@H]3N2C(=O)Cn2nc(C(N)=O)c3ccccc32)C1" ?
output: 5.66

input: Subsequent entry: "CC1(C)CCC[C@H](NC(=O)[C@@H]2C[C@@]3(CO)C[C@H]3N2C(=O)Cn2nc(C(N)=O)c3ccccc32)C1"
output: 6.43

input: Then CC1(O)CCCC(NC(=O)[C@@H]2C[C@H]3C[C@H]3N2C(=O)Cn2nc(C(N)=O)c3ccccc32)C1 (stereo partly drawn) ?
output: 6.04

input: Record: "CO[C@@H]1CCC[C@@H](NC(=O)[C@@H]2C[C@H]3C[C@H]3N2C(=O)Cn2nc(C(C)=O)c3cc(OCc4ncccn4)ccc32)C1"
output: 6.84

input: Entry CC(=O)c1nn(CC(=O)N2[C@@H]3C[C@@H]3C[C@H]2C(=O)NC2CCCC=C2F)c2ccc(OCc3ncccn3)cc12 (stereo partly drawn) please
output: 6.55

input: Further, for "CC1(C)CCC[C@H](NC(=O)[C@@H]2[C@@H]3C[C@@H]3CN2C(=O)Cn2nc(C(N)=O)c3ccncc32)C1" ?
output: 5.18
